Where do these numbers come from? They come from PubChem BioAssay AID1671189.

Target: Polyunsaturated fatty acid lipoxygenase ALOX12 (Homo sapiens)
Assay: Confirmatory qHTS assay for inhibitors of human arachidonate 12S-lipoxygenase (ALOX12): Round 2
Conditions: purified human 12-LOX, xylenol orange absorbance; series mostly up to 125 µM
Text: Assay Provider: Theodore R. Holman Ph.D. University of California, Santa Cruz, California Human lipoxygenase 12hLO is a member of the closely related lipoxygenase family of enzymes which catalyze the site-specific oxidation of arachidonic acid to various hormone precursor molecules and as such is a candidate for drug development in a variety of disease areas, such as cancer and inflammation. […] The Fe (III)-XO complex is characterized with red-shifted absorbance at 560 nm. […]
The campaign covered roughly 1,100 compounds. About 70 (6%) were called active. Roughly 22% stayed inconclusive and do not appear here. The call rests on the fitted dose curve; in most records, active means well fitted curve in the direction sought with a large enough effect; inconclusive means small, poorly fitted or top-dose-only effect, or another doubt; inactive means no such curve, though single readings can be large or run the other way. Many of the other results were omitted from the sample, so actives are more common in it than they were.
Permitted responses: active, inactive

Query string: How did this test come out for O=C1Nc2ccccc2C12CCN(Cc1ccccc1)C2 (stereo unspecified) ?
Result string: inactive

Query string: Which outcome was entered for the compound COc1ccccc1C(=O)N1CCn2c(nnc2C2CCNCC2)C1 in this test?
Result string: inactive

Query string: // param item: O=C1CCN(C(=O)[C@@H]2CCCN2Cc2ccc(C(F)(F)F)cc2)CCCCCCN1 ; yields the recorded call
Result string: inactive

Query string: Hi, do you know how COc1ccc(OC2CN(Cc3cccc4ccccc34)C2)cc1 came out in this test?
Result string: inactive

Query string: Which outcome was assigned to O=Cc1cccc(N2CCN(C(=O)c3ccc4c(c3)OCO4)CC2=O)c1 in this test?
Result string: inactive

Query string: Record request — test call for CNCc1ccccc1Cl
Result string: inactive

Query string: Dear all, I need the recorded test outcome for O=c1[nH]c(C2CCCN(Cc3ccc(-c4cc(F)cc(F)c4)cc3)C2)nc2ccc(F)cc12 (stereo unspecified) , thank you.
Result string: inactive

Query string: Hi, sorry to bother you, what did the test record for COc1ccc(-c2cc(-c3cccc(CO)c3)cn3cncc23)cc1 ?
Result string: active

Query string: I would be grateful if you could indicate the recorded call for CCOCCCNc1ncnc2c1CN(C1CCCNCC1)C(=O)CN2C (stereo unspecified) .
Result string: inactive

Query string: Recorded test outcome, item O=C(c1cc(C2CC2)nc2onc(C3CCCN3)c12)N1CCC(F)CC1 (stereo unspecified)
Result string: inactive

Query string: // return assay outcome for COc1cccc(-c2ccc(CN)cc2)c1
Result string: inactive
